Sourced from patent US20250326753A1

Catalogue of inhibition at 1 µM values
- assay target: FER (Homo sapiens)
- Construct: purchased Reaction Biology Europe GmbH
- Sequence (P16591 whole entry): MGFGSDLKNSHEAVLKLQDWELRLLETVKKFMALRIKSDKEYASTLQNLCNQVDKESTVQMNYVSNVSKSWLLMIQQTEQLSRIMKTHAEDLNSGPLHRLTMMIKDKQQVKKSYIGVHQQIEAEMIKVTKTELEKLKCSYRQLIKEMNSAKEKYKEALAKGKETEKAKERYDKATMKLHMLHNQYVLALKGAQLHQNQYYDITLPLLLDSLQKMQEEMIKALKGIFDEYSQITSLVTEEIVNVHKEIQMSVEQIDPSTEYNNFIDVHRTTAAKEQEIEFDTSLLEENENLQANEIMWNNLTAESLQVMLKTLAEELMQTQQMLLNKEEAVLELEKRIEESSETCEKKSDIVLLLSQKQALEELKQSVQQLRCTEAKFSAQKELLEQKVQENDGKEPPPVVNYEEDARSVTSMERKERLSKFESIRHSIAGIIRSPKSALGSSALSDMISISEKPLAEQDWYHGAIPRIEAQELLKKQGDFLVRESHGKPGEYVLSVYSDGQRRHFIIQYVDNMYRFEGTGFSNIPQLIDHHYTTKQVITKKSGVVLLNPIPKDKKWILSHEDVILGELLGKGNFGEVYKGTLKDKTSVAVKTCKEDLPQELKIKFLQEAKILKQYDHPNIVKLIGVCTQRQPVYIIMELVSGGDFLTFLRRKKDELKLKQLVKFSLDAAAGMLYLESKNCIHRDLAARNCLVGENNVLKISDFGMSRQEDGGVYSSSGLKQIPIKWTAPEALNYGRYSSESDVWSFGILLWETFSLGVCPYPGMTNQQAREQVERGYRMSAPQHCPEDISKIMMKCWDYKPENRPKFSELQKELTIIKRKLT
- test protocol: PanQinase kinase panel: FER
- Assay type: biochemical
- setup conditions: read-out: INHIBITORY EFFECT @ 1 uM: FER
- Procedure: Screening procedures were performed in accordance with the company's on-line protocol [accessed on-line Mar. For each kinase, the median value of the cpm of three wells was defined as “low control” (n=3). This value reflects unspecific binding of radioactivity to the plate in the absence of a protein kinase but in the presence of the substrate. […]

Some compounds with recorded inhibition at 1 µM:
smiles structure	readout type	recorded value
O=C(c1ccc(Oc2ccccc2)cc1Cl)c1c[nH]c2ncnc(N[C@@H]3CC[C@@H](CO)OC3)c12	inhibition at 1 µM	70 to 89%
COc1ccc(F)cc1C(=O)NCc1ccc(-c2nn([C@@H](C)C(F)(F)F)c(N)c2C(N)=O)cc1	inhibition at 1 µM	< 50%
C=CC(=O)N1CCC([C@@H]2CCNc3c(C(N)=O)c(-c4ccc(Oc5ccccc5)cc4)nn32)CC1	inhibition at 1 µM	< 50%

Bench note: what inhibition at 1 µM did Cc1cccnc1[C@H]1CCC[C@@H](c2ncccc2C)N1CCN1CCN(C(=O)c2ccc(-c3cc4c(-c5cccc(NC(=O)c6ccccc6)c5C)ncnc4[nH]3)cc2)CC1 show?
< 50%

* * *

// values below are reported inhibition at 1 µM
- assay target: FGFR2 (Homo sapiens)
- Construct: purchased Reaction Biology Europe GmbH
- Sequence (P21802 22-821): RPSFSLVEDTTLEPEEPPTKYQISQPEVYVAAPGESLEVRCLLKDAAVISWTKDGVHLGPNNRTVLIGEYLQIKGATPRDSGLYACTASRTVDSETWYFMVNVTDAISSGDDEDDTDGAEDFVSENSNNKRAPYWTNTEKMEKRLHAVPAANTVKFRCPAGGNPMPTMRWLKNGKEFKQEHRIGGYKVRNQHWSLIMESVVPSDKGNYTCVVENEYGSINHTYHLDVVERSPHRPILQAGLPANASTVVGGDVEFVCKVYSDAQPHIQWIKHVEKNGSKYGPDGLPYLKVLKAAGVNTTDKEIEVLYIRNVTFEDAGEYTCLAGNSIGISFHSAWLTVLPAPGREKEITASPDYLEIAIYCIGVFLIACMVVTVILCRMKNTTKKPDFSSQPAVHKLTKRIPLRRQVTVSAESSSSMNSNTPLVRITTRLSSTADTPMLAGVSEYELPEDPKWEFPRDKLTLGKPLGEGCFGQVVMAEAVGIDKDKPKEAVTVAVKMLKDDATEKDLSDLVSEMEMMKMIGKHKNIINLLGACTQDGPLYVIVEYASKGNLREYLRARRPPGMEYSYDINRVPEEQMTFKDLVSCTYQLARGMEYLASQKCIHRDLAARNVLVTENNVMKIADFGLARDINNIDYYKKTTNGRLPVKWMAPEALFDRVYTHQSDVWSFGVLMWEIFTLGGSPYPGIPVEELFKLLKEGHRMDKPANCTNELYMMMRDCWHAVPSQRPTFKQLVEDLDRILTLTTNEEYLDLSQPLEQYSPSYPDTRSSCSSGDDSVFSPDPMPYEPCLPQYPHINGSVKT
- test protocol: PanQinase kinase panel: FGFR2
- Format: biochemical
- setup conditions: read-out: INHIBITORY EFFECT @ 1 uM: FGFR2
- Protocol: Screening procedures were performed in accordance with the company's on-line protocol [accessed on-line Mar. 25, 2022 at reaction biology.com/assay-protocol-panqinase]. […] For each kinase, the median value of the cpm of three wells was defined as “low control” (n=3). This value reflects unspecific binding of radioactivity to the plate in the absence of a protein kinase but in the presence of the substrate. […]

Please review the following examples before continuing.
smiles structure	inhibition at 1 µM
COc1ccc(F)cc1C(=O)NCc1ccc(-c2nn([C@@H](C)C(F)(F)F)c(N)c2C(N)=O)cc1	< 50%
O=C(c1ccc(Oc2ccccc2)cc1Cl)c1c[nH]c2ncnc(N[C@@H]3CC[C@@H](CO)OC3)c12	90 to 100%
C=CC(=O)N1CCC([C@@H]2CCNc3c(C(N)=O)c(-c4ccc(Oc5ccccc5)cc4)nn32)CC1	< 50%

Switching to the query record.
Request the reported inhibition at 1 µM associated with Cc1cccnc1[C@H]1CCC[C@@H](c2ncccc2C)N1CCN1CCN(C(=O)c2ccc(-c3cc4c(-c5cccc(NC(=O)c6ccccc6)c5C)ncnc4[nH]3)cc2)CC1
< 50%

* * *

- assay target: EGFR (Homo sapiens, UniProt P00533)
- Construct: purchased Reaction Biology Europe GmbH
- Sequence (P00533 25-1210): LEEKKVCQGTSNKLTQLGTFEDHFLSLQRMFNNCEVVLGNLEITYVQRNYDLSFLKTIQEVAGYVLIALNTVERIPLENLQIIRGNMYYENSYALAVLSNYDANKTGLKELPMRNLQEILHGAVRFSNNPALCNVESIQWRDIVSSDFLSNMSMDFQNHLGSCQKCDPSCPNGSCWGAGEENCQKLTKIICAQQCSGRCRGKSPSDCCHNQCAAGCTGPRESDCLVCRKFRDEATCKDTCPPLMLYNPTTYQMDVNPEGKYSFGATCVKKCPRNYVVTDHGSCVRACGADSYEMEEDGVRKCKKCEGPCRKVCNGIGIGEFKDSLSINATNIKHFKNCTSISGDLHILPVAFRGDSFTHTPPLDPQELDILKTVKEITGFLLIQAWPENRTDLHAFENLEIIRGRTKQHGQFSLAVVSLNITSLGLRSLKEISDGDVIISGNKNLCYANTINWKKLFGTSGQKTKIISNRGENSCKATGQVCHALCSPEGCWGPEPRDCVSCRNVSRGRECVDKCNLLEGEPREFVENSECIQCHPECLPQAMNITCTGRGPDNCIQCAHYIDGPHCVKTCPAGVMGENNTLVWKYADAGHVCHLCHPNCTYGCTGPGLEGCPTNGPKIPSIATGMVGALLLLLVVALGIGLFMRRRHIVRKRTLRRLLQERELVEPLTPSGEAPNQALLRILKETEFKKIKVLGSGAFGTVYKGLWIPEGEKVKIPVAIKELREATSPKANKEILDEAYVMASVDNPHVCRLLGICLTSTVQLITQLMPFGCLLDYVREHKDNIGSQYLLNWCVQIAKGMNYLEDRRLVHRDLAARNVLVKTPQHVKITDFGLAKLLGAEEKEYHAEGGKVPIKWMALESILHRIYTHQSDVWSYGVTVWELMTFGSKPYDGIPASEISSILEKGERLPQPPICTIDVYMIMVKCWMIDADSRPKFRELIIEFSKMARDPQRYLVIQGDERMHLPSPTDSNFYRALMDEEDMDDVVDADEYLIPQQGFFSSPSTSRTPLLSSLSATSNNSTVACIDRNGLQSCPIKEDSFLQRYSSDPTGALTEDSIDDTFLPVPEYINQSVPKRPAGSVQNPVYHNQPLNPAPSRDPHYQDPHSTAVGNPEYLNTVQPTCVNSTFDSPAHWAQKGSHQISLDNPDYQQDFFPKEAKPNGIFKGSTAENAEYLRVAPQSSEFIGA
- test protocol: PanQinase kinase panel: EGFR
- Type: biochemical
- setup conditions: read-out: INHIBITORY EFFECT @ 1 uM: EGFR
molecules and their reported inhibition at 1 µM

Completed entries (count: 3):
smiles structure	inhibition at 1 µM
Cc1cccnc1[C@H]1CCC[C@@H](c2ncccc2C)N1CCN1CCN(C(=O)c2ccc(-c3cc4c(-c5cccc(NC(=O)c6ccccc6)c5C)ncnc4[nH]3)cc2)CC1	< 50%
COc1ccc(F)cc1C(=O)NCc1ccc(-c2nn([C@@H](C)C(F)(F)F)c(N)c2C(N)=O)cc1	< 50%
O=C(c1ccc(Oc2ccccc2)cc1Cl)c1c[nH]c2ncnc(N[C@@H]3CC[C@@H](CO)OC3)c12	70 to 89%

# ---- query molecule ----
Param item = C=CC(=O)N1CCC([C@@H]2CCNc3c(C(N)=O)c(-c4ccc(Oc5ccccc5)cc4)nn32)CC1 ; retrieve measured inhibition at 1 µM.
< 50%

* * *

Readings of inhibition at 1 µM for the listed molecules
- assay target: MEK1 (Homo sapiens, UniProt Q02750)
- Construct: purchased Reaction Biology Europe GmbH
- Sequence (Q02750 whole entry): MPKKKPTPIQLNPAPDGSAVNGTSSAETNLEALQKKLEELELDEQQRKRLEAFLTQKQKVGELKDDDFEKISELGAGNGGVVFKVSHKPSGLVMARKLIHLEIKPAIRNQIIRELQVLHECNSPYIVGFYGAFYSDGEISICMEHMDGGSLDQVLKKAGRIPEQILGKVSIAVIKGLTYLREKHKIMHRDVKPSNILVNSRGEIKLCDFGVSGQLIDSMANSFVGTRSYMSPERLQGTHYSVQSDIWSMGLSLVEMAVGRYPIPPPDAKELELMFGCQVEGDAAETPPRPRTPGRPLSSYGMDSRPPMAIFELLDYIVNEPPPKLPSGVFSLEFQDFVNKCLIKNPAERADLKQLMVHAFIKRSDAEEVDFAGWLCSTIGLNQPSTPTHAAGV
- test protocol: PanQinase kinase panel: MEK1
- Format: biochemical
- setup conditions: read-out: INHIBITORY EFFECT @ 1 uM: MEK1
- Description: Screening procedures were performed in accordance with the company's on-line protocol [accessed on-line Mar. For each kinase, the median value of the cpm of three wells was defined as “low control” (n=3). This value reflects unspecific binding of radioactivity to the plate in the absence of a protein kinase but in the presence of the substrate. […]

Some molecules with recorded inhibition at 1 µM:
smiles structure	assay target	inhibition at 1 µM
O=C(c1ccc(Oc2ccccc2)cc1Cl)c1c[nH]c2ncnc(N[C@@H]3CC[C@@H](CO)OC3)c12	MEK1 (Homo sapiens, UniProt Q02750)	50 to 69%
COc1ccc(F)cc1C(=O)NCc1ccc(-c2nn([C@@H](C)C(F)(F)F)c(N)c2C(N)=O)cc1	MEK1 (Homo sapiens, UniProt Q02750)	< 50%
C=CC(=O)N1CCC([C@@H]2CCNc3c(C(N)=O)c(-c4ccc(Oc5ccccc5)cc4)nn32)CC1	MEK1 (Homo sapiens, UniProt Q02750)	< 50%

Switching to the query record.
Return reported inhibition at 1 µM; argument: Cc1cccnc1[C@H]1CCC[C@@H](c2ncccc2C)N1CCN1CCN(C(=O)c2ccc(-c3cc4c(-c5cccc(NC(=O)c6ccccc6)c5C)ncnc4[nH]3)cc2)CC1
< 50%

* * *

Recorded measurements of pIC50, one per entry
- assay target: CXCR4 (Homo sapiens)
- Sequence (P61073 whole entry): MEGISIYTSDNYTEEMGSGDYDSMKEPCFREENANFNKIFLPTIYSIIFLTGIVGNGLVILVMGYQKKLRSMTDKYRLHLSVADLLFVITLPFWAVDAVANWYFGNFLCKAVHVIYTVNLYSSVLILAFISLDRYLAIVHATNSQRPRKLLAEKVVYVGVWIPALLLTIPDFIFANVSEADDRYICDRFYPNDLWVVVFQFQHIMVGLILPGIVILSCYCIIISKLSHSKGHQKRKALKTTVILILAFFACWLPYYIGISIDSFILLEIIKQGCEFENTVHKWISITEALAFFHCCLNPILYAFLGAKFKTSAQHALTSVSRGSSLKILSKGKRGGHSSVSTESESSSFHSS
- test protocol: Chemokine (CXCL12-AF647) binding inhibition assay, Jurkat cells expressing CXCR4
- setup conditions: CXCL12-AF647 25 ng/ml, read-out: IC50 CXCL-12 binding Jurkat
pIC50: −log10 of the molar value.

molecule	readout type	recorded value
Cc1cc(-c2ncnc3[nH]c(C(=O)N(C)CCCN4[C@@H](c5ncccc5C)CCC[C@H]4c4ncccc4C)cc23)ccc1CNC(=O)c1ccc(C(C)(C)C)cc1 [Compound I-5]	pIC50	6.00 to 7.00
Cc1cccnc1[C@H]1CC(COC(=O)[C@@H]2CC[C@@H](Nc3ncnc4[nH]cc(C(=O)c5ccc(Oc6ccccc6)cc5Cl)c34)CO2)C[C@@H](c2ncccc2C)N1CCCCN (stereo partly shown) [Compound I-21]	pIC50	7.00 to 9.00
Cc1cccnc1[C@H]1CCC[C@@H](c2ncccc2C)N1CCCCN1CCN(C(=O)c2ccc(-c3cc4c(-c5cccc(NC(=O)c6ccccc6)c5C)ncnc4[nH]3)cc2)CC1 [Compound I-31]	pIC50	7.00 to 9.00
Cc1cc(-c2ncnc3[nH]c(S(=O)(=O)NCCCCN4[C@@H](c5ncccc5C)CCC[C@H]4c4ncccc4C)cc23)ccc1CNC(=O)c1ccc(C(C)(C)C)cc1 [Compound I-28]	pIC50	6.00 to 7.00

Quick one: pIC50 for Cc1cccnc1[C@H]1CCC[C@@H](c2ncccc2C)N1CCNC[C@@H]1CC[C@@H](Nc2ncnc3[nH]cc(C(=O)c4ccc(Oc5ccccc5)cc4Cl)c23)CO1 [Compound I-15] ?
5.60 to 6.00

# input molecule: Cc1cc(-c2ncnc3[nH]c(C(=O)NCCCCN4[C@@H](c5ncccc5C)CCC[C@H]4c4ncccc4C)cc23)ccc1CNC(=O)c1ccc(C(C)C)cc1 [Compound I-44] ; wanted: its pIC50
7.00 to 9.00

Quick one: pIC50 of Cc1cccnc1[C@H]1CCC[C@@H](c2ncccc2C)N1CCNC1CN(C(=O)c2ccc(-c3cc4c(-c5cccc(NC(=O)c6ccc(C(C)C)cc6)c5C)ncnc4[nH]3)cc2)C1 [Compound I-35] ?
7.00 to 9.00

pIC50 lookup needed for Cc1cccnc1[C@H]1CC(C(=O)OC[C@@H]2CC[C@@H](Nc3ncnc4[nH]cc(C(=O)c5ccc(Oc6ccccc6)cc5Cl)c34)CO2)C[C@@H](c2ncccc2C)N1CCCCN (stereo partly shown) [Compound I-22] , thanks.
7.00 to 9.00

Can you share its pIC50? I mean this molecule: Cc1cc(-c2ncnc3[nH]c(C(=O)NCCCN4[C@@H](c5ncccc5C)CCC[C@H]4c4ncccc4C)cc23)ccc1CNC(=O)c1ccc(C(C)(C)C)cc1 [Compound I-4]
7.00 to 9.00

Would you kindly share the measured pIC50 for Cc1cccnc1[C@H]1CCC[C@@H](c2ncccc2C)N1CCN1CCN(C(=O)c2ccc(-c3cc4c(-c5cccc(NC(=O)c6ccc(C(C)(C)C)cc6)c5C)ncnc4[nH]3)cc2)CC1 [Compound I-7] ?
6.00 to 7.00

* * *

- System: 340 wild-type protein kinases
- test protocol: PanQinase wild-type kinase panel, selectivity score
- Format: biochemical
- setup conditions: 1 μM; share of kinases with residual activity <50%; 340 wild-type protein kinase assays
readout type: Selectivity Score
Respond using a number only.

# annotated cases, reported Selectivity Score shown
molecule	Selectivity Score
Cc1cc(-c2ccnc(Nc3cnn(C)c3)n2)ccc1CNC(=O)N1CC(OC(C)C)C1 [BIIB-068, reference compound]	0.009
Cc1cccnc1[C@H]1CCC[C@@H](c2ncccc2C)N1CCN1CCN(C(=O)c2ccc(-c3cc4c(-c5cccc(NC(=O)c6ccccc6)c5C)ncnc4[nH]3)cc2)CC1 [Compound I-10]	0.053

What does the data say about its Selectivity Score? Entry: Cc1cccnc1[C@H]1CCC[C@@H](c2ncccc2C)N1CCCCNC(=O)[C@@H]1CC[C@@H](Nc2ncnc3[nH]cc(C(=O)c4ccc(Oc5ccccc5)cc4Cl)c23)CO1 [Compound I-16]
0.265

// query Selectivity Score value for entry Cc1cccnc1[C@H]1CCC[C@@H](c2ncccc2C)N1CCCCNC(=O)OC[C@@H]1CC[C@@H](Nc2ncnc3[nH]cc(C(=O)c4ccc(Oc5ccccc5)cc4Cl)c23)CO1 [Compound I-18]
0.221

Request the reported Selectivity Score associated with Cc1cc(-c2ccnc(Nc3cnn(CCN4[C@@H](c5ncccc5C)CCC[C@H]4c4ncccc4C)c3)n2)ccc1CNC(=O)N1CC(OC(C)C)C1 [Compound I-11]
0.032
